Tested on: Axenically grown L. donovani amastigotes (MHOM-ET-67/L82)
experiment.summary: Axenic Leishmania donovani assay
Assay type: cell-based
reported.conditions: 70 h incubation, read-out: IC50 L. donovani axen
Field: label. Allowed values: Satisfied (IC50 < 0.04 µg/mL) or Not satisfied (IC50 >= 0.04 µg/mL).

These recorded examples may help you get a feel for the data.
In [3]: df
Out[3]:
                                   compound                                    target    class_label
0  CC1(COCc2ccc(OCc3ccccc3)cc2)Cn2cc([N+](=O)[O-])nc2O1 (centres unmarked)  Axenically grown L. donovani amastigotes (MHOM-ET-67/L82)      Satisfied
1  O=[N+]([O-])c1cn2c(n1)OCC(COCc1cccc(OC(F)(F)F)c1)C2 (centres unmarked)  Axenically grown L. donovani amastigotes (MHOM-ET-67/L82)  Not satisfied
2  O=[N+]([O-])c1cn2c(n1)OCC(COCc1ccc(OCc3ccccc3)cc1)C2 (centres unmarked)  Axenically grown L. donovani amastigotes (MHOM-ET-67/L82)  Not satisfied
3  CC1(COCc2ccc(OCc3ccccc3)cc2)CCn2cc([N+](=O)[O-])nc2O1 (centres unmarked)  Axenically grown L. donovani amastigotes (MHOM-ET-67/L82)  Not satisfied
4  O=[N+]([O-])c1cn2c(n1)OCC(COCc1ccc(-c3ccc(OC(F)(F)F)cc3)cc1)C2 (centres unmarked)  Axenically grown L. donovani amastigotes (MHOM-ET-67/L82)  Not satisfied

Now look at this entry.
Is the reported IC50 for CC1(COc2ccc(-c3ccc(C#N)cc3)cc2)Cn2cc([N+](=O)[O-])nc2O1 (centres unmarked) strictly below 0.04 µg/mL?
Satisfied

====

outcome.measure: melting point

Data point: CC1(COCc2cccc(-c3ccc(OC(F)(F)F)cc3)c2)CCn2cc([N+](=O)[O-])nc2O1 (stereo not shown) ; melting point = 80 to 82 °C

Data point: CC1(COc2ccc(-c3ccc(C(F)(F)F)cc3)cc2)CCn2cc([N+](=O)[O-])nc2O1 (stereo not shown) ; melting point = 196 to 198 °C

====

Tested on: Axenically grown L. donovani amastigotes (MHOM-ET-67/L82)
experiment.summary: Axenic Leishmania donovani assay
Assay type: cell-based
reported.conditions: 70 h incubation, read-out: IC50 L. donovani axen
Procedure: (c) Antiprotozoal screening. Compounds were evaluated for their activities against both Trypanosoma cruzi amastigotes and Leishmania donovani amastigotes (free or encapsulated in macrophages), according to the following protocols: (ii) Axenic Leishmania donovani assay. […] The IC50 values were determined from measurements of the fluorescence data.
outcome.measure: IC50 (µg/mL)
Field format: number, assumed µg/mL, no unit text.

Sample answers from the record:
                                   molecule    val
0  CC1(COc2ccc(-c3ccc(C(F)(F)F)cc3)cc2)Cn2cc([N+](=O)[O-])nc2O1 (stereo not shown) [Compound 11]  0.028
1  CC1(COc2ccc(-c3ccc(OC(F)(F)F)cc3)cc2)Cn2cc([N+](=O)[O-])nc2O1 (stereo not shown) [Compound 12]  0.016
2  CC1(COc2ccc(OCc3ccccc3)cc2)Cn2cc([N+](=O)[O-])nc2O1 (stereo not shown) [Compound 7]  0.016
3  O=[N+]([O-])c1cn2c(n1)OC(COCc1ccc(OCc3ccccc3)cc1)CC2 (stereo not shown) [Compound 49]  0.048
4  O=[N+]([O-])c1cn2c(n1)OCC(COCc1ccc(OC(F)(F)F)cc1)C2 (stereo not shown) [Compound 72]  0.089
5  COc1ccc(-c2ccc(OCC3(C)Cn4cc([N+](=O)[O-])nc4O3)cc2)cn1 (stereo not shown) [Compound 8]  0.017

Data point: O=[N+]([O-])c1cn2c(n1)OC(COCc1cccc(-c3ccc(OC(F)(F)F)cc3)c1)CC2 (stereo not shown) [Compound 50] ; IC50 = 0.041

Data point: CC1(COCc2ccc(OC(F)(F)F)cc2)Cn2cc([N+](=O)[O-])nc2O1 (stereo not shown) [Compound 25] ; IC50 = 0.029

Data point: O=[N+]([O-])c1cn2c(n1)OC(COCc1ccc(-c3ccc(OC(F)(F)F)cc3)cc1)CC2 (stereo not shown) [Compound 51] ; IC50 = 0.046

Data point: O=[N+]([O-])c1cn2c(n1)OCC(COCc1cccc(-c3ccc(OC(F)(F)F)cc3)c1)C2 (stereo not shown) [Compound 74] ; IC50 = 0.16

====

Overview of reported pIC50 across a group of compounds:
Tested on: VERO cells (CCL-81)
experiment.summary: Mammalian cell cytotoxicity assay (tetrazolium dye)
Type: cell-based
reported.conditions: Chlorocebus sabaeus, 72 h exposure, read-out: IC50 VERO
pIC50: −log10 of the molar value.

Sample answers from the record:
                                   compound     val
0  CC1(COc2ccc(-c3ccc(C#N)cc3)cc2)Cn2cc([N+](=O)[O-])nc2O1 (stereo not drawn)  < 3.89
1  CC1(COCc2ccc(OC(F)(F)F)cc2)Cn2cc([N+](=O)[O-])nc2O1 (stereo not drawn)  < 3.89
2  O=[N+]([O-])c1cn2c(n1)OC(COCc1cccc(-c3ccc(OC(F)(F)F)cc3)c1)CC2 (stereo not drawn)  < 3.89
3  O=[N+]([O-])c1cn2c(n1)OCC(COCc1cccc(OC(F)(F)F)c1)C2 (stereo not drawn)  < 3.89
4  O=[N+]([O-])c1cn2c(n1)OC(COCc1ccc(OCc3ccccc3)cc1)CC2 (stereo not drawn)  < 3.89

Reported VERO cells (CCL-81) pIC50 for item O=[N+]([O-])c1cn2c(n1)OCC(COCc1ccc(OCc3ccccc3)cc1)C2 (stereo not drawn) was 3.95

====

outcome.measure: melting point

                                   molecule            val
0  CC1(COc2ccc(-c3ccc(C#N)cc3)cc2)Cn2cc([N+](=O)[O-])nc2O1 (centres unmarked) [Compound 9]  180 to 181 °C
1  CC1(COCc2cccc(OC(F)(F)F)c2)CCn2cc([N+](=O)[O-])nc2O1 (centres unmarked)  108 to 110 °C
2  O=[N+]([O-])c1cn2c(n1)OCC(COc1ccc(-c3ccc(OC(F)(F)F)cc3)cn1)C2 (centres unmarked)  182 to 183 °C
3  O=[N+]([O-])c1cn2c(n1)OC(COc1ccc(OCc3ccccc3)cc1)CC2 (centres unmarked) (hydrate or solvate)  222 to 224 °C

Please look at the following molecule next.
Data point: CC1(COc2cnc(-c3ccc(OC(F)(F)F)cc3)nc2)Cn2cc([N+](=O)[O-])nc2O1 (centres unmarked) ; melting point = 223 to 225 °C

====

Tested on: Trypanosoma cruzi amastigotes (Tulahuen C2C4 strain)
experiment.summary: Trypanosoma cruzi assay in infected L-6 cells
Format: cell-based
reported.conditions: L6, 96 h incubation, read-out: IC50 T. cruzi
Field: label. Allowed values: Yes (IC50 < 0.7 µg/mL) or No (IC50 >= 0.7 µg/mL).

Is the reported IC50 for CC1(COCc2ccc(OCc3ccccc3)cc2)Cn2cc([N+](=O)[O-])nc2O1 (centres unmarked) [Compound 26] strictly below 0.7 µg/mL?
Yes

Is the reported IC50 for O=[N+]([O-])c1cn2c(n1)OC(COCc1ccc(OCc3ccccc3)cc1)CC2 (centres unmarked) [Compound 49] strictly below 0.7 µg/mL?
Yes

Is the reported IC50 for O=[N+]([O-])c1cn2c(n1)OCC(COCc1ccc(OC(F)(F)F)cc1)C2 (centres unmarked) [Compound 72] strictly below 0.7 µg/mL?
Yes

Is the reported IC50 for O=[N+]([O-])c1cn2c(n1)OC(COCc1ccc(-c3ccc(OC(F)(F)F)cc3)cc1)CC2 (centres unmarked) [Compound 51] strictly below 0.7 µg/mL?
No

Is the reported IC50 for CC1(COCc2ccc(OCc3ccccc3)cc2)CCn2cc([N+](=O)[O-])nc2O1 (centres unmarked) [Compound 54] strictly below 0.7 µg/mL?
No

====

Tested on: VERO cells (CCL-81)
experiment.summary: Mammalian cell cytotoxicity assay (tetrazolium dye)
Assay type: cell-based
reported.conditions: Chlorocebus sabaeus, 72 h exposure, read-out: IC50 VERO
Overview of reported IC50 across a group of molecules:

Sample answers from the record:
>>> df
                                   molecule       val
0  COc1ccc(-c2ccc(OCC3(C)Cn4cc([N+](=O)[O-])nc4O3)cc2)cn1 (centres unmarked) [Compound 8]  > 128 µM
1  CC1(COCc2ccc(OCc3ccccc3)cc2)CCn2cc([N+](=O)[O-])nc2O1 (centres unmarked) [Compound 54]  > 128 µM
2  O=[N+]([O-])c1cn2c(n1)OCC(COCc1cccc(-c3ccc(OC(F)(F)F)cc3)c1)C2 (centres unmarked) [Compound 74]  > 128 µM
3  O=[N+]([O-])c1cn2c(n1)OCC(COCc1ccc(OC(F)(F)F)cc1)C2 (centres unmarked) [Compound 72]     46 µM
4  CC1(COc2ccc(-c3ccc(OC(F)(F)F)cc3)cc2)Cn2cc([N+](=O)[O-])nc2O1 (centres unmarked) [Compound 12]  > 128 µM
5  CC1(COc2ccc(-c3ccc(F)cc3)cc2)Cn2cc([N+](=O)[O-])nc2O1 (centres unmarked) [Compound 10]  > 128 µM

Reported VERO cells (CCL-81) IC50 for item O=[N+]([O-])c1cn2c(n1)OC(COCc1ccc(-c3ccc(OC(F)(F)F)cc3)cc1)CC2 (centres unmarked) [Compound 51] was > 128 µM

Reported VERO cells (CCL-81) IC50 for item CC1(COCc2ccc(OCc3ccccc3)cc2)Cn2cc([N+](=O)[O-])nc2O1 (centres unmarked) [Compound 26] was > 128 µM

The reported numbers originate from patent US8293734B2.
